B1: ETS2 (parent)
chain: TSGKRYVYRFVCDLQNLLGFTPEE

- Variants of: B1
- assayOverview: protein stability index of a GFP-peptide fusion (GPS, HEK-293T) (PSI 1-6); higher = more stable;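 also: lentivirally expressed fusions sorted by FACS into six bins by GFP to DsRed ratio, PSI derived from sequencing read proportions per bin multiplied by bin number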
- conditionsUsed: c terminus: a fixed tail appended
readoutName: protein stability index
Answer with the value's number alone.

protein stability index reported for this variant `L18K` : 1.95

Briefly, protein stability index measured for `Q15K` : 2.03

// field: protein stability index; key: `N16Q` ; value = 2.04

For `L18E` the variant record lists protein stability index as 2.04

Short answer for `N16K` : protein stability index was 2.02

Measured protein stability index of `F20H` : 1.97
